I'd appreciate it if you could supply GI50 values for the items below.
Test system: DMS-114
method-description: NCI tumour cell line growth inhibition, 48 h
Among all 15,000 sequences or so, about 800 (5.3%) were called active. Only a sample is shown. Measured potencies and affinities stand elsewhere.
Record the value in µM, omitting the unit from your answer.

Enter recorded GI50 with DMS-114 for mu-(1,7-nanodiamine-N,N')bis-(cis-aminedichloroplatimum (II)), CHEMBL2146215 here.
6.18

Enter recorded GI50 with DMS-114 for [Bis(aminomethyl)pentamethylenesilane]dichloropaltinum(II), CHEMBL2146202 here.
4.01

Please look at [Bis(aminomethyl)tetramethylenesilane]dichloropaltinum(II), CHEMBL2146205 and tell me its recorded GI50 on DMS-114.
5.89

GET GI50 where system = DMS-114 and item = [Bis(aminomethyl)diethylsilane]tetrachloroplatinum(IV), CHEMBL2146203
2.23
